I'd appreciate it if you could supply aptazyme ON/OFF ratio values for the items below.
B1: Pistol ribozyme (parent)
chain: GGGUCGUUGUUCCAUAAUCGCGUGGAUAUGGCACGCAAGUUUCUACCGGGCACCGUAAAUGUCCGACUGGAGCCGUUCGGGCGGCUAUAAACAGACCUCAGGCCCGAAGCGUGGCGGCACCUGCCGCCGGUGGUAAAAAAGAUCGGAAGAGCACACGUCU

variants of: B1; assay: aptazyme ON/OFF ratio, guanine; higher = stronger switching; co-transcriptional cleavage with and without guanine
Numbers only.

Past entries and their recorded results:
U7C G9A C12G C13U: 1.23
U7C U8C G9A U10C U11C: 3.61
U7G U8G U10G C13U: 1.39

For every item below, please supply its aptazyme ON/OFF ratio.
1. U7A U8A U10C U11A C12A C13A
2. U7A G9A U10A U11C C12A C13G
3. U7C U8C G9A U10G U11A C13U
4. U7G U8G G9A U11A
5. U7A U8C G9C U10C U11A C12U C13G
6. U7C U8G G9C U11C C12G C13G
7. U7C U8G U10C U11C C12G
8. U8C U10A U11A C12A C13U

1: 1.1; 2: 1.15; 3: 1.07; 4: 2.46; 5: 1.01; 6: 1.08; 7: 1.41; 8: 1.12

For every item below, please supply its aptazyme ON/OFF ratio.
1. U7G U8G U11G C12G C13A
2. U7A G9A U10A U11G C12A C13A
3. U8C G9C U11C C12G C13A
4. U7G U8C G9U U10G U11C C13A
5. U7A U8C G9A U10A U11C C13G
6. U7C U8A U10A U11C C12G C13G
7. U10G C12G

[1.18, 1.16, 1.2, 1.38, 1.03, 1.22, 1.12]

For every item below, please supply its aptazyme ON/OFF ratio.
1. U7A U8A G9C U10C U11G C12G C13G
2. U7G U8A G9A C12U C13A
3. U8A G9C U10G C12G C13A
4. U8A U11A C12A C13G
5. U8G G9U U11A C12U
6. U8C G9C U10G U11G C13A

1: 1.08; 2: 1.13; 3: 1.23; 4: 1.16; 5: 1.36; 6: 1.11
